Below, Ki values reported for the protein given by its sequence across several publications.
Target protein (sequence): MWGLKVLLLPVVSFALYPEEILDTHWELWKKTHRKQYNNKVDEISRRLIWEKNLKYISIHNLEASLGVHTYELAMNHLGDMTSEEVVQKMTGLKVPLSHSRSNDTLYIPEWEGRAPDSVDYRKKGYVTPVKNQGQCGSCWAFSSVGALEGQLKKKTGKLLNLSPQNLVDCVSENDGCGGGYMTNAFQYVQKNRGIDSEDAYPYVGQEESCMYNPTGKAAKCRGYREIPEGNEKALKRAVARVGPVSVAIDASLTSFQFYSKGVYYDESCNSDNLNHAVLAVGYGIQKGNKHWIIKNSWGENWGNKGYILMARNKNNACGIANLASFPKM
Measure: Ki

O=C(N[C@@H](Cc1ccccc1)C(=O)NC1COCC1=O)c1cc2ccccc2s1 (stereo not given in full); > 10 µM
C[C@@H](CN1CCc2cc(F)ccc21)NC(=O)[C@@H](CC(=O)N1CCOCC1)Cc1ccccc1; > 30 µM
C[C@@H](CNc1ccc(OC(F)(F)F)cc1)NC(=O)[C@H](CC1CCCCC1)NC(=O)C1CCOC1 (stereo not given in full); > 30 µM
N#CCNC(=O)CNC(=O)OCc1ccccc1; > 1000 µM
CC(C)[C@H](NC(=O)c1cc2ccccc2s1)C(=O)NC1COCC1=O (stereo not given in full); > 10 µM

###

Below, pKi values reported for Cathepsin K (Homo sapiens) across several publications.
pKi: −log10 of the molar value.
Measure: pKi

CCC[C@H](NC(=O)C1(NC(=O)c2ccc(OC(F)(F)F)cc2)CCCCC1)C(=O)c1nnc(CC)o1; 8.10
CCCC[C@H](NC(=O)[C@@H](NC(=O)c1cccc(C(N)=O)c1)C(C)CC)C(=O)CO (stereo not given in full); 6.96
CC[C@H](NC(=O)OC(C)(C)C)C(=O)NCC#N; 5.30

###

Below, Ki values reported for Cathepsin K (Homo sapiens) across several publications.
Measure: Ki

CC(C)(C)OC(=O)N1CCC[C@H]1C(=O)NCC#N; > 100000 nM
CC(C)[C@@H](CNc1ccc(OC(F)(F)F)cc1)NC(=O)[C@H](CCC1CCCC1)CC(=O)N1CCOCC1; > 26400 nM
O=C(N[C@@H](CCc1ccccc1)CNc1ccc(OC(F)(F)F)cc1)[C@H](CCC1CCCC1)CC(=O)N1CCOCC1; > 30000 nM
C[C@@H](CNc1ccc(OC(F)(F)F)cc1)NC(=O)[C@H](CCC(C)(C)C)CC(=O)N1CCOCC1; > 100000 nM
CCC[C@H](NC(=O)OC(C)(C)C)C(=O)c1nnc(C(C)C)o1; 5600 nM
C[C@H]1CN(C(=O)[C@@H](NC(=O)c2ccc(N3CCN(C)CC3)cc2)C(C)(C)C)[C@@H]2C(=O)CO[C@@H]21; 1.1 nM
CC(C)C[C@H](NC(=O)c1ccc2cc[nH]c2c1)C(=O)NC1COCC1=O (stereo partly specified); 38 nM
CC(C)(C)OC(=O)N[C@@H](Cc1ccc(O)cc1)C(=O)NCC#N; 30000 nM
CC(C)(C)OC(=O)N[C@@H](Cc1ccc(Br)cc1)C(=O)NCC#N; 28000 nM
CC(C)C[C@H](NC(=O)c1ccc(C(C)(C)C)cc1)C(=O)NC1COCC1=O (stereo partly specified); 15 nM
C[C@@H](CNc1ccc(OC(F)(F)F)cc1)NC(=O)[C@@H](CC(=O)N1CCOCC1)c1ccc(C(F)(F)F)cc1; > 100000 nM
O=C(C[C@@H](CC1CCCCC1)C(=O)N1CCOCC1)NCCNc1ccc(F)cc1; > 100000 nM
CC(C)C[C@H](NC(=O)OCc1ccccc1)C(=O)N1CC(=O)C(NC(=O)[C@@H](CC(C)C)NC(=O)OCc2ccccc2)C1 (stereo partly specified); 2.3 nM
CC(C)(C)OC(=O)N[C@@H](Cc1ccco1)C(=O)NCC#N; 4100 nM
O=C(NCCNc1ccc(OC(F)(F)F)cc1)[C@H](CC1CCCCC1)NC(=O)N1CCOCC1; 18800 nM
CC(C)C[C@H](NC(=O)OCc1ccccc1)c1nc(C(=O)NN2CC[C@@H](NC(=O)OCc3ccccc3)C2=O)cs1; 330 nM
O=C(N[C@@H](Cc1ccc2ccccc2c1)C(=O)N[C@H]1CCCN(S(=O)(=O)c2ccccn2)CC1=O)c1cc2ccccc2o1; 295 nM
C#C[C@@H]1CN(C(=O)[C@@H](NC(=O)c2ccc(-c3nc(N4CCN(C)CC4)sc3F)cc2)C2CCCC2)[C@@H]2C(=O)CO[C@H]12; 0.6 nM
CC[C@@H](CNc1ccc(OC(F)(F)F)cc1)NC(=O)[C@H](CC1CCCCC1)NC(=O)N1CCOCC1; 130 nM
CC(C)C[C@H](NC(=O)OCc1ccccc1)C(=O)NNC(=O)NNC(=O)c1ccc(OCc2ccccc2)cc1; 100 nM
CC(C)C[C@H](NC(=O)OCc1ccccc1)c1nc(C(=O)NN2CC[C@@](CC(C)C)(NC(=O)OCc3ccccc3)C2=O)cs1; 33 nM

###

Below, Ki values reported for Cathepsin K (Homo sapiens, UniProt P43235) across several publications.
Measure: Ki

O=C(NCCNc1ccc(OC(F)(F)F)cc1)[C@@H](CC(=O)N1CCOCC1)c1ccc(C(F)(F)F)cc1; > 100 µM
CC(C)(C)OC(=O)NCC(=O)NCC#N; > 1000 µM
O=C(N[C@@H](CC1CCCCC1)C(=O)NC1COCC1=O)c1cc2ccccc2s1 (some centres undefined); > 10 µM
C[C@@H](CNc1ccc(OC(F)(F)F)cc1)NC(=O)[C@H](CC1CCCCC1)NC(=O)O[C@H]1CCOC1; > 30 µM
